test: Nrf2 qHTS screen for inhibitors: counterscreen for cytotoxicity; conditions: A549 ARE-Fluc cells, CellTiter-Fluor viability, 18-24 h; series mostly up to 46 µM
The campaign covered roughly 390,000 compounds. About 610 (0.16%) were called active. Inconclusive results (about 4%) are left out. Calls come from the whole dose curve; as a rule, active = well fitted inhibition curve with a large enough effect; inconclusive = small, poorly fitted or top-dose-only effect, or effect the other way, or another doubt; inactive = no such curve, though single readings can be large or run the other way. For the sample, actives were picked, then their nearest neighbours and some compounds at random.
Bench note: report the call from active, inactive

Hi team, can someone confirm the assay call for O=P1(Oc2ccccc2)CC(O)C(O)C(COCc2ccccc2)O1 (centres undefined) ?
inactive

# fetch the recorded call for CN(c1ccccc1)c1ccc([N+](=O)[O-])c2nonc12 here
active

Test call for this compound, please: CC1=CC(=Cc2sc3ccccc3[n+]2C)C=C(C)O1
active

I'd appreciate the recorded outcome for CC(C)c1ccc(-n2c(O)c(/C=N/N3CCOCC3)c(=O)[nH]c2=S)cc1 from this test.
inactive

Per the assay record, what outcome was assigned to Cc1ccc(C(C)C)c(OCC(=O)N2CCN(CC(=O)N3CCOCC3)CC2)c1 ?
inactive

Which outcome was assigned to CC(Cc1ccccc1)NCCC(c1ccccc1)c1ccccc1 (centres undefined) in this test?
inactive

Identify the outcome logged in this assay for the compound shown: CC(C)(C)c1ccc(CN2C(=O)CN=C(c3ccccc3)c3ccccc32)cc1
active

Per the records of this test, what outcome belongs to CCC(C)(O)C(=O)OC1C(=O)OC2CC3C(C)=CC(=O)C(O)C3(C)C3C4(O)OCC23C1C(C)C4O (centres undefined) ?
active

Hi team, can someone confirm the assay call for Cc1ccc(NC(=O)N(Cc2ccc3c(c2)OCO3)C2CCN(Cc3ccccc3)CC2)cc1F ?
inactive

Per the assay record, what outcome was assigned to COc1cc([C@@H]2c3cc4c(cc3[C@H](OC(C)=O)[C@H]3COC(=O)[C@H]23)OCO4)cc(OC)c1OC ?
inactive

Test call, this compound: O=C(O)c1cc[c]([Sb](=[O])([OH])[OH])cc1[N+](=O)[O-]
inactive

# outcome recorded in this test, key = CCN(CC)C(=O)c1ccc(NC(=O)c2sccc2-c2ccccc2)cc1
inactive

I'd appreciate the recorded outcome for CCCCCCCCCCCCn1ccc(=N)cc1 from this test.
inactive

Per the assay record, what outcome was assigned to CN1CCN(c2cc(N3CCNCC3)ccc2[N+](=O)[O-])CC1 ?
active

What outcome does the record of this test show for Cc1ccc(-n2c(/C=C/c3cccc(C(F)(F)F)c3)nc3ccccc3c2=O)cc1 ?
inactive

Give the logged outcome of this assay for the following compound: COC(=O)C1=C(c2cc3ccccc3o2)C[C@@H]2CC[C@H]1N2C(=O)NC1CCCCC1
inactive

Hello, I am checking results. What call was entered for COc1cccc(-c2nc3ccc(N4CCN(C)CC4)cc3[nH]2)c1 ?
inactive

Short answer needed: outcome of this test for S=P(c1ccccc1)(c1ccccc1)c1c(-c2ccccc2)[nH]c2ccccc12 ?
inactive

Status in this test for CSc1nc2ccc(C)cc2c(=O)n1-c1cccnc1 ?
inactive

The reported numbers originate from PubChem BioAssay AID504648.
